# Tested on: ATP;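 further: ATP exposure 15 min at 22 °C before imaging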
# assay_method_text: switch fluorescence ratio, 500 uM ATP over buffer (Cy3 cluster intensity, sum of 5 cycles each) (fold (ratio)); higher = stronger signal-on switching upon ATP binding; sequences stand for … in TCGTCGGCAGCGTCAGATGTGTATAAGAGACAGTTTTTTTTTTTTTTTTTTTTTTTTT…TC
# condition_context: aptamer strand: ATP DNA aptamer (quencher-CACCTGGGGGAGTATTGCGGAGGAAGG + anchor), 100 nM annealed; ATP concentration: 500 uM
value_type: switch fluorescence ratio
Give only the figure.

Query :: Give the measured switch fluorescence ratio of `AGGCGGCAGC` .
Result :: 0.982

Query :: Give the measured switch fluorescence ratio of `TTTCTTTGGT` .
Result :: 1.02

Query :: Give the measured switch fluorescence ratio of `TCTAAAGATT` .
Result :: 1.01

Query :: Give the measured switch fluorescence ratio of `TCATTTTTCT` .
Result :: 0.98

Query :: Give the measured switch fluorescence ratio of `TTGTTTTAGG` .
Result :: 0.987

Query :: Give the measured switch fluorescence ratio of `GTTGAATGGG` .
Result :: 0.977

Query :: Give the measured switch fluorescence ratio of `TTTGACGATT` .
Result :: 1

Query :: Give the measured switch fluorescence ratio of `AGGGAAGTCG` .
Result :: 0.975

Query :: Give the measured switch fluorescence ratio of `GAGGAGGGGG` .
Result :: 0.986

Query :: Give the measured switch fluorescence ratio of `GTAGTATGAG` .
Result :: 0.999

Query :: Give the measured switch fluorescence ratio of `TTTTTTCGTT` .
Result :: 0.988

Query :: Give the measured switch fluorescence ratio of `TTGATATAAT` .
Result :: 0.981

Query :: Give the measured switch fluorescence ratio of `TTAGTTGCTT` .
Result :: 1.01

Query :: Give the measured switch fluorescence ratio of `ACTTGGGGAG` .
Result :: 1

Query :: Give the measured switch fluorescence ratio of `TTTAAGCTGT` .
Result :: 0.978

Query :: Give the measured switch fluorescence ratio of `CGTTAATTTT` .
Result :: 0.983

Query :: Give the measured switch fluorescence ratio of `TGGGGTAATG` .
Result :: 0.995

Query :: Give the measured switch fluorescence ratio of `CATGGAGTGT` .
Result :: 1.01

Query :: Give the measured switch fluorescence ratio of `TGGAATGGGG` .
Result :: 1

Query :: Give the measured switch fluorescence ratio of `ATGATGATAG` .
Result :: 1.01

Query :: Give the measured switch fluorescence ratio of `AGCTGACGCT` .
Result :: 1.02

Query :: Give the measured switch fluorescence ratio of `TCTAGTAAAT` .
Result :: 1.01

Query :: Give the measured switch fluorescence ratio of `TAATGTTCTT` .
Result :: 1

Query :: Give the measured switch fluorescence ratio of `TTTGCCGTTC` .
Result :: 1.01

Query :: Give the measured switch fluorescence ratio of `GATATTTAAG` .
Result :: 0.988

Query :: Give the measured switch fluorescence ratio of `GGGACGGGTT` .
Result :: 0.974

Query :: Give the measured switch fluorescence ratio of `GGTTTAATAG` .
Result :: 0.986

Query :: Give the measured switch fluorescence ratio of `CACCATCTTG` .
Result :: 0.987

Query :: Give the measured switch fluorescence ratio of `ATAGTTTGAT` .
Result :: 1.01

Query :: Give the measured switch fluorescence ratio of `TGGGGGCCCG` .
Result :: 0.995

Query :: Give the measured switch fluorescence ratio of `CTTGGTCAAG` .
Result :: 0.983

Query :: Give the measured switch fluorescence ratio of `TGGGCGAAAA` .
Result :: 0.974

Query :: Give the measured switch fluorescence ratio of `TGTGTGAGTG` .
Result :: 0.981

Query :: Give the measured switch fluorescence ratio of `TAGGTGGTCC` .
Result :: 0.989

Query :: Give the measured switch fluorescence ratio of `TTTTTGGAAC` .
Result :: 1.01

Query :: Give the measured switch fluorescence ratio of `ATAGTCCCAC` .
Result :: 0.99

Query :: Give the measured switch fluorescence ratio of `TCAAATAGGC` .
Result :: 1.02

----------
# System: ATP;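 further: ATP exposure 15 min at 22 °C before imaging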
# assay_method_text: switch fluorescence ratio, 500 uM ATP over buffer (Cy3 cluster intensity, sum of 5 cycles each) (fold (ratio)); higher = stronger signal-on switching upon ATP binding; sequences stand for … in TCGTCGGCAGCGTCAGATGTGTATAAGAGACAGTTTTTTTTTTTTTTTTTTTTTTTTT…TC
# condition_context: aptamer strand: ATP DNA aptamer (quencher-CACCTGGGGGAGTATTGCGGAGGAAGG + anchor), 100 nM annealed; ATP concentration: 500 uM
Would you kindly list switch fluorescence ratio for each of these sequences?
Give only the figure.

Query :: Give the measured switch fluorescence ratio of `GTGTGTTTGT` .
Result :: 0.955

Query :: Give the measured switch fluorescence ratio of `ACTTCATGGG` .
Result :: 1.01

Query :: Give the measured switch fluorescence ratio of `AAAGTTCGAA` .
Result :: 0.977

Query :: Give the measured switch fluorescence ratio of `GAAATTTATA` .
Result :: 1.05

Query :: Give the measured switch fluorescence ratio of `TTTAACAGTA` .
Result :: 1.04

Query :: Give the measured switch fluorescence ratio of `GCTAAACGAT` .
Result :: 1.03

Query :: Give the measured switch fluorescence ratio of `GCAATGGGAA` .
Result :: 1.1

Query :: Give the measured switch fluorescence ratio of `ATGAATGTAT` .
Result :: 0.986

Query :: Give the measured switch fluorescence ratio of `GGCGCGGCGG` .
Result :: 1.02

Query :: Give the measured switch fluorescence ratio of `TGACGGGAAG` .
Result :: 0.986

Query :: Give the measured switch fluorescence ratio of `TCCACTGGAT` .
Result :: 1.03

Query :: Give the measured switch fluorescence ratio of `TATTGGGATA` .
Result :: 1.01

Query :: Give the measured switch fluorescence ratio of `CAATAGGGGA` .
Result :: 1.01

Query :: Give the measured switch fluorescence ratio of `GCGTGGGGGG` .
Result :: 1

Query :: Give the measured switch fluorescence ratio of `GCGTTTGGGC` .
Result :: 0.99

Query :: Give the measured switch fluorescence ratio of `CCTGAAGTTG` .
Result :: 1.18

Query :: Give the measured switch fluorescence ratio of `AGCTTCTAAA` .
Result :: 0.976

Query :: Give the measured switch fluorescence ratio of `ACGTGACACC` .
Result :: 1.35

Query :: Give the measured switch fluorescence ratio of `TGCAAACCTA` .
Result :: 1.02

Query :: Give the measured switch fluorescence ratio of `TCCTTTTAGA` .
Result :: 1.01

Query :: Give the measured switch fluorescence ratio of `AGGAGGAGGC` .
Result :: 0.789

Query :: Give the measured switch fluorescence ratio of `TCAAGGGGAA` .
Result :: 1

Query :: Give the measured switch fluorescence ratio of `TTTTCGCATT` .
Result :: 1.23

Query :: Give the measured switch fluorescence ratio of `GGTGGGGCTG` .
Result :: 0.968

Query :: Give the measured switch fluorescence ratio of `GTGGGGGGGC` .
Result :: 0.989

Query :: Give the measured switch fluorescence ratio of `CAGATAGCAG` .
Result :: 1.09

Query :: Give the measured switch fluorescence ratio of `TCCTTTTGG` .
Result :: 0.996

Query :: Give the measured switch fluorescence ratio of `GGAAGGGGGT` .
Result :: 1.01

Query :: Give the measured switch fluorescence ratio of `AAAAGCAGCG` .
Result :: 1.03

Query :: Give the measured switch fluorescence ratio of `GAGTCCATGG` .
Result :: 0.985

Query :: Give the measured switch fluorescence ratio of `TAAGGGGGAC` .
Result :: 1.01

Query :: Give the measured switch fluorescence ratio of `GGATGCAAAG` .
Result :: 1.01

Query :: Give the measured switch fluorescence ratio of `ATCGTTTTGA` .
Result :: 0.989

Query :: Give the measured switch fluorescence ratio of `GGACTTATGG` .
Result :: 0.985

Query :: Give the measured switch fluorescence ratio of `TCTTGAACGT` .
Result :: 0.978

Query :: Give the measured switch fluorescence ratio of `GGGGACTTGC` .
Result :: 0.991

Query :: Give the measured switch fluorescence ratio of `AATTGTATAG` .
Result :: 0.991

Query :: Give the measured switch fluorescence ratio of `GTATTCGTTT` .
Result :: 1

Query :: Give the measured switch fluorescence ratio of `AGGGGCGTGG` .
Result :: 1.01

Query :: Give the measured switch fluorescence ratio of `TGAAATATCA` .
Result :: 1.02

Query :: Give the measured switch fluorescence ratio of `CGTGGGGTGG` .
Result :: 1.02

Query :: Give the measured switch fluorescence ratio of `GTGTCTGTTG` .
Result :: 0.981

Query :: Give the measured switch fluorescence ratio of `CCAATGTATG` .
Result :: 0.998

Query :: Give the measured switch fluorescence ratio of `GACACGGGGT` .
Result :: 1

Query :: Give the measured switch fluorescence ratio of `CTGACTCCAA` .
Result :: 2.94

Query :: Give the measured switch fluorescence ratio of `TTGCTTGGAA` .
Result :: 0.992

Query :: Give the measured switch fluorescence ratio of `GAACTCGATG` .
Result :: 1.02

Query :: Give the measured switch fluorescence ratio of `AAAATACGTT` .
Result :: 1.23

Query :: Give the measured switch fluorescence ratio of `GAGTGGCTCT` .
Result :: 0.968

Query :: Give the measured switch fluorescence ratio of `TTGTTATTCG` .
Result :: 1.01

Query :: Give the measured switch fluorescence ratio of `GTGGGATAAT` .
Result :: 1.02

Query :: Give the measured switch fluorescence ratio of `GGGCCACTCG` .
Result :: 0.972

Query :: Give the measured switch fluorescence ratio of `GTCAGGATTT` .
Result :: 0.993

Query :: Give the measured switch fluorescence ratio of `GAATCCGTTC` .
Result :: 1.07

Query :: Give the measured switch fluorescence ratio of `TTACTTATAA` .
Result :: 1.04

Query :: Give the measured switch fluorescence ratio of `TTGAGAGGGA` .
Result :: 0.99

Query :: Give the measured switch fluorescence ratio of `AAGGGAGGTT` .
Result :: 1

Query :: Give the measured switch fluorescence ratio of `GATTGCATGA` .
Result :: 0.996

Query :: Give the measured switch fluorescence ratio of `GCTGCAGCGC` .
Result :: 1

Query :: Give the measured switch fluorescence ratio of `CCCGGAAGGT` .
Result :: 1.04
